All figures here come from ChEMBL document CHEMBL1142239.

# ASSAY OVERVIEW: Cytotoxicity against Vero cells after 4 days
# Format: cell-based
# CONDITIONS USED: chlorocebus sabaeus, read-out: CCID50
PROPERTY: CC50 at 96 h

The examples below pair each entry with its known result.
>  <MOLECULE>
CCOC[C@H]1C[C@@](CC(C)C)(C(=O)O)N(C(=O)c2ccc(C(C)(C)C)c(OC)c2)[C@H]1c1nccs1

>  <PROPERTY>
CC50 at 96 h

>  <READING>
142 µM

$$$$
>  <MOLECULE>
CC(C)C[C@@]1(C(=O)O)C[C@H](C(N)=O)[C@H](c2nccs2)N1C(=O)c1ccc(C(C)(C)C)c(Br)c1

>  <PROPERTY>
CC50 at 96 h

>  <READING>
> 500 µM

$$$$
>  <MOLECULE>
COC[C@H]1C[C@@](CC(C)C)(C(=O)O)N(C(=O)c2ccc(C(C)(C)C)c(OC)c2)[C@H]1c1nccs1

>  <PROPERTY>
CC50 at 96 h

>  <READING>
240 µM

$$$$

Tell me its CC50 at 96 h given CC(C)C[C@@]1(C(=O)O)C[C@H](C(=O)O)[C@H](c2cccs2)N1C(=O)c1ccc(C(F)(F)F)cc1 (racemic) as the entry.
> 500 µM

Tell me its CC50 at 96 h given CC(C)C[C@@]1(C(=O)O)C[C@H](C(N)=O)[C@H](c2nccs2)N1C(=O)c1ccc(C(C)(C)C)cc1 as the entry.
430 µM

Tell me its CC50 at 96 h given CC(C)C[C@@]1(C(=O)O)C[C@H](C(N)=O)[C@H](c2nccs2)N1C(=O)c1ccc(C(C)(C)C)c(Cl)c1 as the entry.
> 500 µM
